Target: Sentrin-specific protease 6 (Homo sapiens)
Sequence (Q9GZR1 whole entry): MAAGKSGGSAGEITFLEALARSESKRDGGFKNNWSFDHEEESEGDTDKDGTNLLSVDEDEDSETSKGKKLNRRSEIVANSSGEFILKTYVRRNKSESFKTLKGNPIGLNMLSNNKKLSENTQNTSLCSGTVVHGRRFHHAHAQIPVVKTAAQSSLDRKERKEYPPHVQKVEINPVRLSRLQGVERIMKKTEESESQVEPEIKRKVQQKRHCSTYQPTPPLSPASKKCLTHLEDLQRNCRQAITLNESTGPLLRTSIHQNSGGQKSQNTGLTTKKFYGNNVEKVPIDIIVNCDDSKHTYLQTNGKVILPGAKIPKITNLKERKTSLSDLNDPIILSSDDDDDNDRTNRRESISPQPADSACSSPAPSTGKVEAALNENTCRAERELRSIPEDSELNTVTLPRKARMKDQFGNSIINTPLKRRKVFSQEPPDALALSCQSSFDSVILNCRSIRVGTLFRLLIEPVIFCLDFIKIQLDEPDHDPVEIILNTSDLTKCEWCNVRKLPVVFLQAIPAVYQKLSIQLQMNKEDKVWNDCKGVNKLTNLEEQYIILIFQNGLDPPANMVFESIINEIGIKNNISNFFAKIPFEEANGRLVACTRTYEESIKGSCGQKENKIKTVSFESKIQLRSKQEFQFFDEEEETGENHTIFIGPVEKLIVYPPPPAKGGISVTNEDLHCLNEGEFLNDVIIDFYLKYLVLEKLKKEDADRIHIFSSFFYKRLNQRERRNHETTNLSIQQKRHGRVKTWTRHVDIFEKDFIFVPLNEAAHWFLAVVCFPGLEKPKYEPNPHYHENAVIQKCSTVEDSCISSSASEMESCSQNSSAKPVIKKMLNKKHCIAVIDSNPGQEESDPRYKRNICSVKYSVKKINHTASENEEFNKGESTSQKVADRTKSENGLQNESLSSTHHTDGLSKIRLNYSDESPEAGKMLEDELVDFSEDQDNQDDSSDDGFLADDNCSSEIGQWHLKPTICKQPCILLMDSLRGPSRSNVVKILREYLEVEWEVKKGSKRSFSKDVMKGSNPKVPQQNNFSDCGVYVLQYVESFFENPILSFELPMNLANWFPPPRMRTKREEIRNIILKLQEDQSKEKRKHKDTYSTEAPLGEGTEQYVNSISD
Experiment: SAR Analysis of small molecule inhibitors of Sentrin-specific protease 6 (SENP6) using a Luminescent assay. [Related pubchem assays (depositor defined):AID2582, AID2599]
Format: functional
Active and inactive are the calls of the source.
Labels: yes (1) = active, no (0) = inactive

>  <structure smiles>
CCCCc1ccc2nc(NC(=O)c3cccs3)sc2c1

>  <study target>
Sentrin-specific protease 6 (Homo sapiens)

>  <assigned label>
yes (1)

$$$$
>  <structure smiles>
COC(=O)c1ccc(NC(=O)c2ccc3c(c2)OCO3)cc1

>  <study target>
Sentrin-specific protease 6 (Homo sapiens)

>  <assigned label>
no (0)

$$$$
>  <structure smiles>
CCCC(=O)Nc1ccc(-c2nc3cc(Cl)ccc3o2)cc1

>  <study target>
Sentrin-specific protease 6 (Homo sapiens)

>  <assigned label>
no (0)

$$$$
>  <structure smiles>
Oc1ccccc1-c1nc(-c2ccccc2)no1

>  <study target>
Sentrin-specific protease 6 (Homo sapiens)

>  <assigned label>
yes (1)

$$$$

----------
test: cells; assay type: functional
Active and inactive are the calls of the source.
measurement name: IC50

>  <structure smiles>
Cc1cc(Cl)ccc1OCCCC(=O)NO

>  <measurement name>
IC50

>  <result value>
27.9 µM (active)

$$$$
>  <structure smiles>
COc1ccc(OC(=O)c2cc3ccccc3o2)cc1

>  <measurement name>
IC50

>  <result value>
16.6 µM (active)

$$$$
>  <structure smiles>
COc1ccc(C(=O)OCn2nnc3ccccc3c2=O)cc1[N+](=O)[O-]

>  <measurement name>
IC50

>  <result value>
7.55 µM (active)

$$$$
>  <structure smiles>
O=C(CCS(=O)(=O)c1ccc(F)cc1)Nc1nc(-c2ccccn2)cs1

>  <measurement name>
IC50

>  <result value>
6.21 µM (active)

$$$$
>  <structure smiles>
[O-][n+]1onc2c3cc(-c4ccccc4)[nH]c3ccc21

>  <measurement name>
IC50

>  <result value>
0.67 µM (active)

$$$$
